- system.under.test: Indoleamine 2,3-dioxygenase 1 (Homo sapiens, UniProt P14902)
- Sequence (P14902 whole entry): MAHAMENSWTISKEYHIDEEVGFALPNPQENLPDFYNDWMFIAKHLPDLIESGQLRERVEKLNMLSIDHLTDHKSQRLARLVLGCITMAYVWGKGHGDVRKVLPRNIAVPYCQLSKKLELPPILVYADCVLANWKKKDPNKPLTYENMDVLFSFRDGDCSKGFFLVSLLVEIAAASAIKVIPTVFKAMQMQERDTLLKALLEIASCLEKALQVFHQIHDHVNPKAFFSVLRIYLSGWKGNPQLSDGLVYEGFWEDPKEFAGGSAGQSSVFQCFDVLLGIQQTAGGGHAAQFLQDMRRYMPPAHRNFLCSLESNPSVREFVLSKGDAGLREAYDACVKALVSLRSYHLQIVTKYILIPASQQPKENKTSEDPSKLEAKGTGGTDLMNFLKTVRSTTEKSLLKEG
- measurement.notes: Inhibition of IDO1 in IFNgamma-stimulated human HeLa cells assessed as reduction in kynurenine formation using L-tryptophan as substrate by absorbance based analysis
quantity.measured: IC50 (µM)

Worked examples follow.
| chemical.string | measure.unit | val |
| --- | --- | --- |
| O/N=C(/NCc1cccc(Cl)c1)c1ccc2oc3ccccc3c2c1 | µM | 29.6 |
| O/N=C(/Nc1cccc(Cl)c1)c1ccc2oc3ccccc3c2c1 | µM | 7.6 |
| O/N=C(/Nc1cccc(Br)c1)c1ccc2occc2c1 | µM | 1.1 |
| O/N=C(/Nc1cccc(F)c1)c1ccc2oc(COCC3CC3)cc2c1 | µM | 8 |
| OCc1cc2cc(/C(=N\O)Nc3cccc(Br)c3)ccc2o1 | µM | 1.2 |
| O/N=C(/Nc1cccc(-c2ccccc2)c1)c1ccc2occc2c1 | µM | 11.9 |

(1) O/N=C(/Nc1cccc(Cl)c1)c1ccc2occc2c1
(2) COCc1cc2cc(/C(=N\O)Nc3cccc(Cl)c3)ccc2o1
(3) O/N=C(/Nc1cccc(Br)c1)c1ccc2oc(-c3ccccc3)cc2c1
(4) O/N=C(/Nc1cccc(Br)c1)c1ccc2oc(COCC3CC3)cc2c1
Task item: Descending sort on IC50 required. Put the labels in the order asked and list them.
Reply: 3, 4, 2, 1
(3: 8.6 µM, 4: 3.2 µM, 2: 2.2 µM, 1: 1.5 µM)

(a) OCc1cc2cc(/C(=N\O)Nc3cccc(F)c3)ccc2o1
(b) O/N=C(/Nc1ccc(Cl)c(F)c1)c1ccc2occc2c1
Task item: Field: entry with larger IC50 (options a / b ). Give the label of your selection.
Reply: b
(b: 10.3 µM, a: 2.4 µM)

Provenance of the data: ChEMBL document CHEMBL4819055
